MEASURED ON: T1, LILRA1-His (Acro, LI1-H82E8) (human, UniProt O75019 17-461)
T1 construct: Bought protein. 'Human' stands at the head of the list of coated proteins; not shown: His tag
TEST NAME: ELISA, coated protein 1 µg/mL, antibody 10 µg/mL
Each item that follows carries a reported absorbance at 450 nm.
MEASURED PARAMETER: absorbance at 450 nm

>>> measured("humanized antibody huP2-C6 (antibody, human IgG1, kappa, L234A L235A, V domains shown, Full chains; also called P2-C6H7L1) VH: EVQLVQSGAEVKKPGASVKVSCKASGYTFTDYYIHWVRQAPGQGLEWMGYIYPDTGYSGYNQKFKGRVTMTVDKSTSTAYMELRSLRSDDTAVYYCTRRGDYSGVHFDYWGQGTTVTVSS VL: DIVLTQSPDSLAVSLGERATINCRASESVNNYGVGFLHWYQQKPGQPPKLLIYRASTLESGIPDRFSGSGSGTDFTLTISSLQAEDVAVYYCQHSYKDPPWTFGGGTKVEIKR")
"0.0535 absorbance at 450 nm"
>>> measured("humanized antibody huP2-E8 (antibody, human IgG4 S228P, kappa, F234A L235A, V domains shown, Full chains; also called P2-E8H4L1) VH: EVQLVESGGGLVKPGGSLRLSCAASGFTFSDYGIHWVRQAPGKGLEWVAYISSGSSIHNYADTVKGRFTISRDNAKNSLYLQMNSLRAEDTAVYYCARGPNYYGSSYLLVYWGQGTLVTVSS VL: DIQMTQSPSSLSASVGDRVTITCKASQDVNIAVAWYQQKPGKAPKLLIYSASYRYTGVPSRFSGSGSGTDFTFTISSLQPEDIATYYCQQHYNIPWTFGGGTKVEIKR")
"0.0483 absorbance at 450 nm"
>>> measured("humanized antibody huP2-E3 (antibody, human IgG4 S228P, kappa, F234A L235A, V domains shown, Full chains; The constant region is hIgG1(LALA) or hIgG4(LALA) with a kappa CL; also called P2-E3H6L2) VH: EVQLVQSGAEVKKPGASVKVSCKASGYTFTDYYMNWVKQAPGQRLEWMGDINPNSGGTSYNQKFKGRVTITVDKSGSTAYMELSSLRSEDTAVYYCARGGVTTVVATYWYFDVWGQGTTVTVSS VL: DIQMTQSPSSLSASVGDRVTITCRASENIYSNLAWYQQKPGKSPKLLVYAATNVADGVPSRFSGSGSGTDYTLTISSLQPEDFATYYCQQFWDTPFTFGQGTKLEIKR")
"0.0532 absorbance at 450 nm"
>>> measured("humanized antibody huP2-G9 (antibody, human IgG1, kappa, L234A L235A, V domains shown, Full chains; also called P2-G9H1L2) VH: EVQLQESGPGLVKPSQTLSLTCTVSGSSITSGYYWNWIRQHPGKGLEWIGYLSYDGSNNYNPSLKNLVTISRDTSKNQFSLKLSSVTAADTAVYYCAREGAHYSGTLSWFAYWGQGTLVTVSS VL: DIQMTQSPSSLSASVGDRVTITCRASENIYSNLAWYQQKPGKSPKLLVYAATNLADGVPSRFSGSGSGTDYTLTISSLQPEDFATYYCQHFWDTPYTFGGGTKVEIKR")
"0.0457 absorbance at 450 nm"
